Molecular target: T1, chemokine receptor CCR1 (human, UniProt P32246 1-355)
T1 construct: whole, on cells
T1 sequence (looked up): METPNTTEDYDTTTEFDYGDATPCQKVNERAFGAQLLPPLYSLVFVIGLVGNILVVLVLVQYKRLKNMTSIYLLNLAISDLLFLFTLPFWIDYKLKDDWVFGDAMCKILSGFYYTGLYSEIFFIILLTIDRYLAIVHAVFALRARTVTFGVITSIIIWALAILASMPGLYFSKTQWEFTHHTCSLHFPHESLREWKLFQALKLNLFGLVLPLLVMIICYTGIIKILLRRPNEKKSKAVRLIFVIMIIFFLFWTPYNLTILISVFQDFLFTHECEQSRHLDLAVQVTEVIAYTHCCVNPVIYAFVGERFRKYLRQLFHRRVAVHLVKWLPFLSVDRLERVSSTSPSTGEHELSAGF
Assay: radioligand competition, 0.1 nM 125I-Rantes tracer, membranes of CHO-K1 cells expressing CCR1
resultType: IC50 (nM)

binder="processed chemokine PHC-1 (HCC-1, residues 9-74) (ligand, also called HCC-1[9-74]) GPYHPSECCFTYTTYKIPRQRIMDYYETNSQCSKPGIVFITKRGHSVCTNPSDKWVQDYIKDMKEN" resulttype=IC50 resultunits=nM value=2.3

Data origin: patent EP1224288B1
